# protocol_details: Cytotoxicity by survived cell number in 293 cells expressing ∆K280 TauRD‐DsRed
# Assay type: cell-based
# measurement_setup: human; 293 cells expressing ∆K280 TauRD‐DsRed for 3 days
Exam item: assign YES to entries whose IC50 at 3 days is below 8 µM and NO to entries at or above 8 µM. Note that a value of exactly 8 µM receives NO.

Here are 6 molecules together with their reported answers.
> print(dat)
                                   molecule  class.assignment
1  COc1cccc(/C=C/C(=O)c2ccc(O)cc2)c1O [LM‐026]                NO
2  Nc1c(/N=N/c2ccc(-c3ccc(/N=N/c4cc(S(=O)(=O)O)c5ccccc5c4N)cc3)cc2)cc(S(=O)(=O)O)c2ccccc12 [congo red, reference compound]                NO
3  COc1ccc(O)c(/C=C/C(=O)c2ccccc2)c1 [LM‐006]               YES
4  Cc1ccc(/C=C/C(=O)c2c(O)c3ccccc3oc2=O)cc1 [LM‐016]                NO
5  C=CC(C)(C)c1cc(/C=C/C(=O)c2ccc(O)cc2)c(OC)cc1O [licochalcone A, reference compound]               YES
6  COc1ccc(C(=O)/C=C/c2cc(Br)ccc2O)cc1 [LM‐004]               YES

Continue with the molecule presented below.
Problem: Is 8 µM strictly greater than the molecule's reported IC50 at 3 days? molecule: O=C(c1ccccc1)c1cc2c(O)cccc2oc1=O [LM‐031, 3‐benzoyl‐5‐hydroxychromen‐2‐one]
Solution: NO
